system: RPMI-8226 leukemia; test: NCI tumour cell line growth inhibition, 48 h
Value Kind: TGI

Answered cases to consult:
COc1ccc(N2C(=O)C3c4[nH]c5cc(C)ccc5c4C4CCC(C(C)(C)C)CC4C3C2=O)cc1 (stereo not drawn) = > 10 µM
Nc1ncnc2c1ccn2C/C=C/CO = > 100 µM

Ask: Kindly state the measured TGI obtained for CCN(C(=O)N[C@@H](C)C(=O)N[C@@H](Cc1ccccc1)C(=O)OC)c1ccccc1 with RPMI-8226 leukemia.
Reply: > 100 µM

###

test system: 786-0 renal; experiment: NCI tumour cell line growth inhibition, 48 h
Overview of reported TGI across a group of molecules:
Write the number in µM without appending the unit.

Answered cases to consult:
Cc1nc2sccn2c1-c1nc2sccn2c1/C=C1/C(=O)Nc2ccccc21 = 24.7
COC(=O)c1c2c(c(C)[n+]([O-])c1C)C(=O)C(NCc1ccc(Br)cc1)=CC2=O = 11.2
CC(=O)N/C(=C\c1ccccc1/C=C(\NC(C)=O)c1nc2cc(C)c(C)cc2[nH]1)c1nc2cc(C)c(C)cc2[nH]1 = 46.6
COc1cc2c(cc1OCCCN1CCN(CCCOc3cc4c(cc3OC)C(=O)N3CC(F)(F)C[C@H]3C=N4)CC1)N=C[C@@H]1CC(F)(F)CN1C2=O = 10.8

# next molecule below
Ask: Consider the molecule Cc1nc2c(Br)cc(Br)cc2c(=O)n1-c1nnc(-c2cccc(Cl)c2Cl)c(N)n1 and give its measured TGI.
Reply: 48.2
